- Test Name: HILIC, Waters XBridge BEH Amide, 100 × 2.1 mm, 2.5 µm, 0.5 mL/min, estimated dead time 0.44 min; A: water + 0.1% acetic acid + 10 mM ammonium acetate, pH 4; B: 5% water + 95% acetonitrile + 0.1% acetic acid + 10 mM ammonium acetate, pH 4; gradient (min/%B) 0/95 5/95 20/57 25/57 30/95 40/95
- Experimental Context: stereoisomer not certain
Observed Property: LC retention time (min)

Below, each entry is followed by its recorded LC retention time result.
Molecule | LC retention time, min
O=c1ccn(C2OC(COP(=O)(O)O)C(O)C2O)c(=O)[nH]1 (centres undefined) [URIDINE-5-MONOPHOSPHATE] | 14
CC(C)=CCNc1ncnc2nc[nH]c12 | 0.72

(A) CC(=O)NCC(=O)O
(B) CCCCCCCCCCCCCCCC(=O)OCC(COP(=O)(O)OCCN)OC(=O)CCCCCCCCCCCCCCC (racemic)
Prompt: Of A and B , which carries the smaller reported LC retention time figure? State the label of the item chosen.
Completion: B
(B: 6.05 min, A: 11.2 min)
